- assayed_system: UniProt P08684
- Sequence (P08684 whole entry): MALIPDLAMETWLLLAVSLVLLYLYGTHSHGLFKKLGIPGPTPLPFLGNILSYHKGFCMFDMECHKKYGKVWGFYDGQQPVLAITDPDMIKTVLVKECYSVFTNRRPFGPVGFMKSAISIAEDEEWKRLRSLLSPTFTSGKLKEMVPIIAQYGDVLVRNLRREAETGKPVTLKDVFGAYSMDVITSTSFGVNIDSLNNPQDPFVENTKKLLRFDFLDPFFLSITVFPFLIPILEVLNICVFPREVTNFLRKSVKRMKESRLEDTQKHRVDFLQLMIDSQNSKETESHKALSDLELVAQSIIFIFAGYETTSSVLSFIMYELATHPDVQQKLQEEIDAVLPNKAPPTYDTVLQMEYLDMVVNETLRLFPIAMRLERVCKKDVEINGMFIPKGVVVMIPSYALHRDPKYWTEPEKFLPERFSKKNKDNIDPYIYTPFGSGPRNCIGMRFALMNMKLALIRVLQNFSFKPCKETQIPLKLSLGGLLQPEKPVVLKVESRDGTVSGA
- method_notes: Cytochrome P450 (CYP450) Inhibition Assay, CYP3A4 (Vivid fluorescence, BOMCC substrate)
- assay_setup: human, P450 Baculosomes (recombinant CYP3A4), probe BOMCC (Vivid substrate)

>  <molecule>
COCCOCCN1C(=O)C2(COc3cc(OCCOC)ccc32)c2ccccc21 (centres unmarked)

>  <inhibition at 10 µM>
< 50%

$$$$
>  <molecule>
COc1ncc(CN2C(=O)C3(COc4cc5c(cc43)OCCO5)c3ccccc32)cn1 (centres unmarked)

>  <inhibition at 10 µM>
< 50%

$$$$
>  <molecule>
COc1cc(OC)nc(CN2C(=O)C3(COc4cc5c(cc43)OCCO5)c3ccccc32)n1 (centres unmarked)

>  <inhibition at 10 µM>
> 50%

$$$$
>  <molecule>
Cl.O=C1N(CC2CCNCC2)c2ccccc2C12COc1cc(F)c(F)cc12 (centres unmarked) [Example 11.111, hydrochloride]

>  <inhibition at 10 µM>
> 50%

$$$$
>  <molecule>
O=C1N(C(c2ccccc2)c2ccccc2)c2ccccc2C12COc1cc3c(cc12)OCCO3 (centres unmarked)

>  <inhibition at 10 µM>
< 50%

$$$$
>  <molecule>
CN1C(=O)C2(COc3cc4c(cc32)OCCO4)c2c1cccc2-n1ccccc1=O (centres unmarked)

>  <inhibition at 10 µM>
< 50%

$$$$
>  <molecule>
CC(C)CCN1C(=O)C2(COc3cc(O)ccc32)c2ccccc21 (centres unmarked)

>  <inhibition at 10 µM>
> 50%

$$$$
>  <molecule>
O=C1N(C(c2ccccc2)c2ccccc2)c2ccccc2C12COc1ccc(F)cc12 (centres unmarked)

>  <inhibition at 10 µM>
< 50%

$$$$
>  <molecule>
CS(=O)(=O)c1cccnc1CN1C(=O)C2(COc3cc4c(cc32)OCCO4)c2ccccc21 (centres unmarked)

>  <inhibition at 10 µM>
< 50%

$$$$
>  <molecule>
O=C1N(Cc2ccc(F)cn2)c2ccccc2[C@]12COc1cc3c(cc12)OCCO3

>  <inhibition at 10 µM>
< 50%

$$$$
>  <molecule>
O=C1N(C[C@H]2CCCO2)c2ccccc2C12COc1cc3c(cc12)OCCO3 (some centres unmarked)

>  <inhibition at 10 µM>
< 50%

$$$$
>  <molecule>
O=C1N(Cc2ccc(C(F)F)o2)c2ccccc2C12COc1cc3c(cc12)OCCO3 (centres unmarked)

>  <inhibition at 10 µM>
> 50%

$$$$
>  <molecule>
O=C1N(CC2CCOCC2)c2ccccc2C12COc1cc3c(cc12)CCO3 (centres unmarked)

>  <inhibition at 10 µM>
< 50%

$$$$
>  <molecule>
Cl.O=C1N(C[C@H]2CCCO2)c2ccccc2C12COc1cc(O[C@H]3CCNC3)ccc12 (some centres unmarked) [Example 11.56, hydrochloride]

>  <inhibition at 10 µM>
< 50%

$$$$
>  <molecule>
O=C1N(C[C@H]2CCCO2)c2cccc(Cl)c2C12COc1cc3c(cc12)CCO3 (some centres unmarked)

>  <inhibition at 10 µM>
< 50%

$$$$
>  <molecule>
C[C@@H](CN1C(=O)C2(COc3cc4c(cc32)CCO4)c2ccccc21)OCc1ccccn1 (some centres unmarked)

>  <inhibition at 10 µM>
> 50%

$$$$
>  <molecule>
Cc1nc(-c2cccc(CN3C(=O)C4(COc5cc6c(cc54)CCO6)c4ccccc43)c2)no1 (centres unmarked)

>  <inhibition at 10 µM>
> 50%

$$$$
>  <molecule>
O=C1N(C[C@H]2CCCO2)c2ccccc2C12COc1cc(O)ccc12 (some centres unmarked)

>  <inhibition at 10 µM>
< 50%

$$$$
>  <molecule>
O=C1N(Cc2ccccn2)c2cccc(-c3ccc(Oc4ccccc4)cc3)c2C12COc1cc3c(cc12)OCCO3 (centres unmarked)

>  <inhibition at 10 µM>
< 50%

$$$$
>  <molecule>
O=C1N(Cc2ccc(C(F)(F)F)o2)c2cc3c(cc2C12COc1cc4c(cc12)OCCO4)OCCO3 (centres unmarked)

>  <inhibition at 10 µM>
> 50%

$$$$
>  <molecule>
COc1ccc(CN2C(=O)C3(COc4cc5c(cc43)CCO5)c3c2ccc2ncccc32)cc1 (centres unmarked)

>  <inhibition at 10 µM>
> 50%

$$$$
>  <molecule>
CN1C(=O)C2(COc3cc4c(cc32)OCCO4)c2c(Oc3ccc(C(F)(F)F)cc3)cccc21 (centres unmarked)

>  <inhibition at 10 µM>
> 50%

$$$$
>  <molecule>
O=C1N(CC2COCCO2)c2ccccc2C12COc1cc3c(cc12)CCO3 (centres unmarked)

>  <inhibition at 10 µM>
< 50%

$$$$
>  <molecule>
O=C1N(Cc2ccc3c(c2)OCCO3)c2ccccc2C12COc1cc3c(cc12)CCO3 (centres unmarked)

>  <inhibition at 10 µM>
< 50%

$$$$
>  <molecule>
COCCOc1ccc2c(c1)C1(CO2)C(=O)Nc2ccccc21 (centres unmarked)

>  <inhibition at 10 µM>
< 50%

$$$$
>  <molecule>
Cc1cccc(NC(=O)CN2C(=O)C3(COc4cc5c(cc43)CCO5)c3ccccc32)c1C (centres unmarked)

>  <inhibition at 10 µM>
> 50%

$$$$
>  <molecule>
O=C1N(Cc2cncc(F)c2)c2ccccc2C12COc1cc3c(cc12)OCCO3 (centres unmarked)

>  <inhibition at 10 µM>
> 50%

$$$$
>  <molecule>
Cc1cccc(C)c1NC(=O)CN1C(=O)C2(COc3cc4c(cc32)CCO4)c2ccccc21 (centres unmarked)

>  <inhibition at 10 µM>
> 50%

$$$$
>  <molecule>
COC(=O)c1ccc(CN2C(=O)C3(COc4cc5c(cc43)OCCO5)c3ccccc32)o1 (centres unmarked)

>  <inhibition at 10 µM>
> 50%

$$$$
>  <molecule>
CS(=O)(=O)Nc1ccc2c(c1)OCC21C(=O)N(C[C@H]2CCCO2)c2ccccc21 (some centres unmarked)

>  <inhibition at 10 µM>
< 50%

$$$$
>  <molecule>
O=C1N(C[C@H]2CCCO2)c2ccccc2C12COc1cc3c(cc12)OCC3 (some centres unmarked)

>  <inhibition at 10 µM>
< 50%

$$$$
>  <molecule>
O=C1N(Cc2ccccn2)c2ccccc2[C@]12COc1cc3c(cc12)OCCO3

>  <inhibition at 10 µM>
< 50%

$$$$
